From: ChEMBL document CHEMBL1155802

test system: DNA; assay: Binding affinity to calf thymus DNA assessed as change in melting temperature by thermal denaturation assay; assay type: nucleic-acid assay; settings: Bos taurus
ASSAY_READOUT: ΔTm (°C)
Please reply with the bare figure in °C and do not write the unit itself.

Data point: O=[N+]([O-])c1ccc(/C=C/CSSC/C=C/c2ccc([N+](=O)[O-])cc2)cc1 ; ΔTm = 7

Lab book: ΔTm of FC(F)(F)c1ccc(/C=C/CSSC/C=C/c2ccc(C(F)(F)F)cc2)cc1 noted as 5

---
For Brc1ccc(/C=C/CSSC/C=C/c2ccc(Br)cc2Br)c(Br)c1 the compound record lists ΔTm as 8

Note to self: ΔTm recorded for Clc1ccccc1/C=C/CSSC/C=C/c1ccccc1Cl was 8
